pKi: −log10 of the molar value.
Heads up, these molecules all have pKi values measured for dopamine transporter (Homo sapiens, UniProt Q01959).

entry.smiles: CC(C)COc1ccc(CNC(=O)N(Cc2ccc(F)cc2)C2CCN(C)CC2)cc1
pKi: < 6.00
--
entry.smiles: Cc1nc2sccn2c(=O)c1CCN1CCC(=C(c2ccc(F)cc2)c2ccc(F)cc2)CC1
pKi: < 6.00
--
entry.smiles: N#Cc1c[nH]c2c(C(=O)N3CCN(CCc4ccc(F)cc4)CC3)cccc12
pKi: < 6.00

###

Listed here: compounds with reported pKi for serotonin transporter (Homo sapiens).
pKi: −log10 of the molar value.

entry.smiles: N#Cc1c[nH]c2c(C(=O)N3CCN(CCc4ccc(F)cc4)CC3)cccc12
pKi: < 6.00

entry.smiles: Cc1nc2sccn2c(=O)c1CCN1CCC(=C(c2ccc(F)cc2)c2ccc(F)cc2)CC1
pKi: < 6.00

entry.smiles: CC(C)COc1ccc(CNC(=O)N(Cc2ccc(F)cc2)C2CCN(C)CC2)cc1
pKi: < 6.00
